Ref: patent US6403791B1

test: Oral pharmacokinetics (Cmax) in guinea pigs; conditions: guinea pig, in vivo, dosed orally at 3 mg/kg to guinea pigs
parameterMeasured: Cmax (ng/mL)
Answer with a number only, understood to be in ng/mL.

*Q* // query Cmax value for entry CCc1nc2c(OC(F)F)ccc(C(=O)Nc3c(C)noc3C)c2o1 [Example 1]
*A* 4370
